# Test system: white mongrel male rats
# assay summary: Carrageenan paw edema, cutaneous gel application (series 2)
# Format: in vivo
# conditions used: 1% gel, 4 hours
Listing of recorded Inflammation inhibition (%) by entry.
measurement kind: Inflammation inhibition (%)

[[record]]
molecule = "O=C(O)CCCC(=O)NCCc1c[nH]cn1 [compound III, N-GLUTARYLHISTAMINE]"
measurement_kind = "Inflammation inhibition (%)"
unit_text = "%"
value_reported = 60

[[record]]
molecule = "O=C(O)Cc1ccccc1Nc1c(Cl)cccc1Cl [Voltaren, reference compound]"
measurement_kind = "Inflammation inhibition (%)"
unit_text = "%"
value_reported = 48

[[record]]
molecule = "N[C@@H](Cc1c[nH]cn1)C(=O)NCCC(=O)O [compound XXXVI, N-L-HISTIDYL-β-ALANINE]"
measurement_kind = "Inflammation inhibition (%)"
unit_text = "%"
value_reported = 50

[[record]]
molecule = "NCCC(=O)NCCc1c[nH]c2ccccc12 [compound XIII]"
measurement_kind = "Inflammation inhibition (%)"
unit_text = "%"
value_reported = 35


Where do the numbers come from? From patent EP2229935A1.
